Assay: OD615 S. cerevisiae growth inhibition, permissive medium, pilot counter-assay, permissive growth control for S. cerevisiae lifespan shortening project (AID 705)
Details: OD615, 24 h, at 10 µM, active compounds read high
Activity calls are given as the source filed them.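 How the source made its calls: active means growth inhibition above 25% in both replicates, a cutoff set 3 SD above the mean; inconclusive means above 25% in only one replicate; inactive means the rest.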
List of growth inhibition values.

Worked examples follow.
compound: COc1ccc(C2C(C(=O)NCCN(C)C)c3ccccc3C(=O)N2C)cc1OC (stereo not drawn)
growth inhibition: -7.69% (inactive)
//
compound: CCC(=O)Nc1nc2ccccc2n1CCN1CCOCC1
growth inhibition: -9.48% (inactive)
//
compound: CSCCC(/C(O)=C(\C#N)c1nc2ccccc2[nH]1)N1C(=O)c2ccccc2C1=O (stereo not drawn)
growth inhibition: -14.1% (inactive)
//
compound: CC1C(c2ccccc2)=[N+]([O-])C2(CCCC2)N1O (stereo not drawn)
growth inhibition: -2.46% (inactive)
//
compound: CSc1ccccc1NC(=O)c1cnc2scc(C)n2c1=O
growth inhibition: -16.8% (inactive)
//
compound: CCCCOC(=O)Nc1ccc(S(=O)(=O)Nc2cc(C)nc(C)n2)cc1
growth inhibition: -16.6% (inactive)
//
compound: CCSc1nnc(NC(=O)c2cccc(OCc3c(C)noc3C)c2)s1
growth inhibition: 1.08% (inactive)
//
compound: COc1ccc(C2CC(c3ccc(Cl)c(Cl)c3)Nc3nc(N)nn32)cc1 (stereo not drawn)
growth inhibition: -6.79% (inactive)
//
compound: COc1cc(C(=O)NCc2ccco2)c(Br)c(OC)c1OC
growth inhibition: -1.05% (inactive)
//
compound: CCOCCn1c(SCc2ccccc2)nc2c1c(=O)[nH]c(=O)n2C
growth inhibition: -16.6% (inactive)

Ask: Need growth inhibition, item COC(=O)CN1C(=O)C(O)(CC(=O)c2ccc(Br)cc2)c2ccccc21 (stereo not drawn)
Result: 5.54% (inactive)

Ask: Need growth inhibition, item COCCN1C=C(C(=O)OC)C(c2ccc(OC)c(OC)c2)C(C(=O)OC)=C1
Result: -4.43% (inactive)

Ask: Need growth inhibition, item Cc1ccc(-c2n[nH]c(=S)n2C)cc1
Result: -2.22% (inactive)

Ask: Need growth inhibition, item Cc1c(NC(=O)c2ccc3c(c2)OCO3)c(=O)n(-c2ccccc2)n1C
Result: -8.08% (inactive)

Ask: Need growth inhibition, item CC1=C(NCCc2ccccc2)CCC1=O
Result: 1.6% (inactive)

Ask: Need growth inhibition, item CCC(=O)N1C(C(=O)O)CSC1c1ccc(OC)cc1 (stereo not drawn)
Result: -0.64% (inactive)
